Cited source for all entries: patent US6090605A

System Name: pig kidney fucokinase (Sus scrofa, UniProt I3LTC2)
Construct: L-Fucokinase was purified to apparent homogeneity from the cytosolic fraction of pig kidney; from tissue; host or cells: pig kidney, cytosolic fraction
Sequence (I3LTC2 1-1083): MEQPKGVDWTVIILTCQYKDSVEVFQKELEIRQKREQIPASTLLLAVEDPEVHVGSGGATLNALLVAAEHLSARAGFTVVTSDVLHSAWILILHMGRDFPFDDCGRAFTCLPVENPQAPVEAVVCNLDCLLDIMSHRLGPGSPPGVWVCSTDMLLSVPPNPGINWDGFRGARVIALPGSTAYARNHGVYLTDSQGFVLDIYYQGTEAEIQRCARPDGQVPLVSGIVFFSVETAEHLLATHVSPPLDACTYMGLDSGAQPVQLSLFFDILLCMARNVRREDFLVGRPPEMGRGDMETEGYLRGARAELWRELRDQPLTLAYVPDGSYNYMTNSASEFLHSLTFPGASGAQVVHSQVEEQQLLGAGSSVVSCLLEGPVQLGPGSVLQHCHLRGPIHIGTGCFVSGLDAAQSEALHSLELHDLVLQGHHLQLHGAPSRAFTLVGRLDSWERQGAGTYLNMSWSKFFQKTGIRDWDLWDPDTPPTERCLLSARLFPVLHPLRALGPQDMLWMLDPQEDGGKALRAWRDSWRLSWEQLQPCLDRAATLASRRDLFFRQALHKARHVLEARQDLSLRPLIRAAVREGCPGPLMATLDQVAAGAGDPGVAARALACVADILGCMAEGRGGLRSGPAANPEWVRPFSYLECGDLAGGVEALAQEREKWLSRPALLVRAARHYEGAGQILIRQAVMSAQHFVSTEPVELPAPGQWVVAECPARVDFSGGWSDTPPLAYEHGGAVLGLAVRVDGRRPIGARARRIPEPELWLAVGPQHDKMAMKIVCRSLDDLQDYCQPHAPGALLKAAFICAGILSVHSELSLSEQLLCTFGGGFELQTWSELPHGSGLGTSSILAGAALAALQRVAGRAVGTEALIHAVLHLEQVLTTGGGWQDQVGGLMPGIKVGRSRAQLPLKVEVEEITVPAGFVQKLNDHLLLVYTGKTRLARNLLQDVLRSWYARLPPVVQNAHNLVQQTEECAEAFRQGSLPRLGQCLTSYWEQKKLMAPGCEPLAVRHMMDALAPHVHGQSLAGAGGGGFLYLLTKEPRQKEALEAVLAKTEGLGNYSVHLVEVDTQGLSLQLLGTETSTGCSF
Measurement Notes: Specificity of fucokinase for phosphate donor (nucleotides)
Format: biochemical
Experimental Context: nucleotide added at 1 mM as phosphate donor
Decide using Specific Activity: a value greater than or equal to 0.09 nmoles/mg protein/10 min is 1 (yes), a smaller one is 0 (no).

Study these solved cases before continuing.
Nc1ccn([C@@H]2O[C@H](COP(=O)(O)OP(=O)(O)OP(=O)(O)O)[C@@H](O)[C@H]2O)c(=O)n1: 0 (no)
O=c1[nH]cnc2c1ncn2[C@@H]1O[C@H](COP(=O)(O)OP(=O)(O)OP(=O)(O)O)[C@@H](O)[C@H]1O: 1 (yes)
O=c1ccn([C@@H]2O[C@H](COP(=O)(O)OP(=O)(O)OP(=O)(O)O)[C@@H](O)[C@H]2O)c(=O)[nH]1: 0 (no)

Now, please, on to the next compound.
Challenge: Tell me whether Specific Activity is at least 0.09 nmoles/mg protein/10 min here: Nc1ncnc2c1ncn2[C@@H]1O[C@H](COP(=O)(O)OP(=O)(O)OP(=O)(O)O)[C@@H](O)[C@H]1O
Response given: 1 (yes)
